From: a collection of fitness landscapes (doi:10.1126/science.1257360)

B1: PhoQ; a variant is named by its letters at X, in order, P23837 (parent)
chain: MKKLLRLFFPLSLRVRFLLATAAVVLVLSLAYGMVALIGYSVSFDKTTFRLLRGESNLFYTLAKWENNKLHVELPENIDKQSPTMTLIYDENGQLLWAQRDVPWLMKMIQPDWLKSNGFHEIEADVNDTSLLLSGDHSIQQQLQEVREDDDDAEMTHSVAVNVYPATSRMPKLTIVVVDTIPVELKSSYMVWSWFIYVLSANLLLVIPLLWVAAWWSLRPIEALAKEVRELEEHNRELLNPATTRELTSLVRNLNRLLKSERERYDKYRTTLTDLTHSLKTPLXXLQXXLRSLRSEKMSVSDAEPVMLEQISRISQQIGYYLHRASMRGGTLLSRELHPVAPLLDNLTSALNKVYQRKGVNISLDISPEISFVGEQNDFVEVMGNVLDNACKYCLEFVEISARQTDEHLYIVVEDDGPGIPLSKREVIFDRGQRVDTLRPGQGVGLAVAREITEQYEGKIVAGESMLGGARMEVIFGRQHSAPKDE

variants of: B1; test: enrichment ratio after two sorts for PhoP signalling (ratio (wild type AVST 3.29)); higher = more functional; conditions: with PhoP (E. coli)
Over roughly 140,000 sequences, “enrichment ratio after two sorts for PhoP signalling” has its median near 0; the highest 2% begin near 11. The full list was thinned out, with the highest values kept by preference.
Each item that follows carries a reported enrichment ratio.

The cases that follow already have their enrichment ratio on record.
INSERT INTO assay_data (variant_description, result) VALUES
  ('CVSY', '≤ 0.25'),
  ('FLTQ', '≤ 0.25');

-- ask Give enrichment ratio for the following variant: `PMMQ`
-- reply ≤ 0.25

-- ask Give enrichment ratio for the following variant: `YWNM`
-- reply ≤ 0.25

-- ask Give enrichment ratio for the following variant: `MMIC`
-- reply ≤ 0.25

-- ask Give enrichment ratio for the following variant: `FSSY`
-- reply 0.259

-- ask Give enrichment ratio for the following variant: `QKCC`
-- reply ≤ 0.25

-- ask Give enrichment ratio for the following variant: `ICGK`
-- reply ≤ 0.25

-- ask Give enrichment ratio for the following variant: `LMTS`
-- reply 0.708

-- ask Give enrichment ratio for the following variant: `CSSY`
-- reply 17.5

-- ask Give enrichment ratio for the following variant: `SYHH`
-- reply 0.299
